Provenance of the data: patent US6906205B2

Here the recorded Survival (days) sc is given for each entry.
- System: ANKA strain of P. berghei
- protocolSummary: single dose STI in vivo screen in infected mice
- Parameters: species or system Plasmodium berghei
- recordedConditions: single 10 mg/kg sc in 3% ethanol and 7% Tween 80; untreated control 5.6 ± 0.3

Examples with their reported Survival (days) sc follow.
compound	Survival (days) sc
Fc1ccc(NC2CCC3(CC2)OOC2(O3)C3CC4CC(C3)CC2C4)cc1 (stereo not drawn)	25 days
O=C(OC1CCC2(CC1)OOC1(O2)C2CC3CC(C2)CC1C3)n1ccnc1 (stereo not drawn)	19.7 days
CCS(=O)(=O)N1CCC2(CC1)OOC1(O2)C2CC3CC(C2)CC1C3 (stereo not drawn)	9.3 days
O=C(NC[C@H]1CC[C@]2(CC1)OOC1(O2)C2CC3CC(C2)CC1C3)c1c[nH]cn1 (stereo partly drawn)	11.0 days
O=C(c1ccccc1)N1CCC2(CC1)OOC1(O2)C2CC3CC(C2)CC1C3 (stereo not drawn)	8.7 days

query: Tell me Survival (days) sc reported for O=C1CCC2(CCO1)OOC1(O2)C2CC3CC(C2)CC1C3 (stereo not drawn)
result: 6.3 days

query: Tell me Survival (days) sc reported for O=C(OCCC1CCC2(CC1)OOC1(O2)C2CC3CC(C2)CC1C3)c1ccc([N+](=O)[O-])cc1 (stereo not drawn)
result: 11.7 days

query: Tell me Survival (days) sc reported for N=C(N)NC[C@H]1CC[C@]2(CC1)OOC1(O2)C2CC3CC(C2)CC1C3 (stereo partly drawn)
result: 6.7 days
